assay: Clearance in Balb/c mouse at 1 mg/kg, iv formulated with 5:60:35 DMA/PEG400/20% SBECD; format: ADME, organism-based; conditions: in vivo

| molecule | clearance [mL/min/kg] |
| --- | --- |
| COc1cc(C)[nH]c(=O)c1CNC(=O)c1c(C)n([C@H](C)C2CCN(CC(F)(F)F)CC2)c2ccccc12 [CPI-1205] | 36 |

----------
assay: Volume of distribution at steady in Balb/c mouse at 1 mg/kg, iv formulated with 5:25:70 DMA/PEG400/20% SBECD; assay type: ADME, organism-based; details: in vivo, read-out: Vdss

| molSmiles | Vd [L/kg] |
| --- | --- |
| COc1cc(C)[nH]c(=O)c1CNC(=O)c1c(C)n([C@H](C)C2CCN(CC(F)F)CC2)c2ccccc12 | 1.1 |

----------
test: Tmax in Sprague-Dawley rat at 25 mg/kg, po; type: ADME, organism-based; conditions: in vivo

| molSmiles | Tmax, min |
| --- | --- |
| COc1cc(C)[nH]c(=O)c1CNC(=O)c1c(C)n([C@H](C)C2CCN(CC(F)(F)F)CC2)c2ccccc12 | 30 |

----------
target: CYP3A4 (Homo sapiens); experiment: Inhibition of CYP3A4 (unknown origin) at 10 uM relative to control; assay type: ADME
Sequence (P08684 whole entry): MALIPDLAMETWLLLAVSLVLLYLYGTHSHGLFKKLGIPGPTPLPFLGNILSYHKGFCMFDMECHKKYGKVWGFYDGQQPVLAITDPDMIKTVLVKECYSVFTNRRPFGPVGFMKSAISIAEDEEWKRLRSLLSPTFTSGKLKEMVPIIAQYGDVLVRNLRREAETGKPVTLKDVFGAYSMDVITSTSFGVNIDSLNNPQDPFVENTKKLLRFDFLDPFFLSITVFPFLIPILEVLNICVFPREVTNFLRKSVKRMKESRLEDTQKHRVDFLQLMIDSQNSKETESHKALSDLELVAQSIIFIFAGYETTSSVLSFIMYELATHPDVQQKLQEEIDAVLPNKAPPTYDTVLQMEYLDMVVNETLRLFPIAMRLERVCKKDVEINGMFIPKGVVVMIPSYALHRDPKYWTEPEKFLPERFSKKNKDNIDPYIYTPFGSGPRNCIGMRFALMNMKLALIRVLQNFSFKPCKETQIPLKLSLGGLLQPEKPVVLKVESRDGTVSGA

| molSmiles | inhibition at 10 µM, % |
| --- | --- |
| COc1cc(C)[nH]c(=O)c1CNC(=O)c1c(C)n([C@H](C)C2CCN(CCC(F)(F)F)CC2)c2ccccc12 | 5 |
| COc1cc(C)[nH]c(=O)c1CNC(=O)c1c(C)n([C@H](C)C2CCN(CC(F)(F)F)CC2)c2ccccc12 | 0 |
| COc1cc(C)[nH]c(=O)c1CNC(=O)c1c(C)n([C@H](C)C2CCN(CC(F)F)CC2)c2ccccc12 | 25.2 |
| COc1cc(C)[nH]c(=O)c1CNC(=O)c1c(C)n([C@H](C)C2CCN(CC(C)(F)F)CC2)c2ccccc12 | 0 |

----------
Measured inhibition at 10 µM accompanies every entry in the list below.
target: CYP2D6 (Homo sapiens, UniProt P10635); assay: Inhibition of CYP2D6 (unknown origin) at 10 uM relative to control; format: ADME
Sequence (P10635 whole entry): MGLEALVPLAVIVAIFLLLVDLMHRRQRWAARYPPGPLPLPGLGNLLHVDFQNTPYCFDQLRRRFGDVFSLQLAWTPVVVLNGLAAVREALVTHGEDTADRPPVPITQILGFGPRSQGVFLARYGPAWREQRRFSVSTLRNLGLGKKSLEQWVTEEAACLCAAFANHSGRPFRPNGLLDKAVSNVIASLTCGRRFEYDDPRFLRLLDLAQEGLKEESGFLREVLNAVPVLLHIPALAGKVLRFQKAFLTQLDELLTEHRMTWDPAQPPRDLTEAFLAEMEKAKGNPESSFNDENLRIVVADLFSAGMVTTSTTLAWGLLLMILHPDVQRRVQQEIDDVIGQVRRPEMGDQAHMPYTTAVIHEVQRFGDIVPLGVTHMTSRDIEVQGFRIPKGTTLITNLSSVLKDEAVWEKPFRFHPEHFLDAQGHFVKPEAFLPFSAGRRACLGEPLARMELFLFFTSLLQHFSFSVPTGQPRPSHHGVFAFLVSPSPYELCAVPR
recordedMetric: inhibition at 10 µM

| molSmiles | recordedMetric | resultValue |
| --- | --- | --- |
| COc1cc(C)[nH]c(=O)c1CNC(=O)c1c(C)n([C@H](C)C2CCN(CC(F)F)CC2)c2ccccc12 | inhibition at 10 µM | 26.1% |
| COc1cc(C)[nH]c(=O)c1CNC(=O)c1c(C)n([C@H](C)C2CCN(CC(C)(F)F)CC2)c2ccccc12 | inhibition at 10 µM | 7.7% |
| COc1cc(C)[nH]c(=O)c1CNC(=O)c1c(C)n([C@H](C)C2CCN(CC(F)(F)F)CC2)c2ccccc12 | inhibition at 10 µM | 9.5% |
| COc1cc(C)[nH]c(=O)c1CNC(=O)c1c(C)n([C@H](C)C2CCN(CCC(F)(F)F)CC2)c2ccccc12 | inhibition at 10 µM | 17.2% |

----------
assay: Half life in Balb/c mouse plasma at 1 mg/kg, iv formulated with 5:25:70 DMA/PEG400/20% SBECD; type: ADME, organism-based
recordedMetric: half-life (min)

| molSmiles | recordedMetric | resultValue |
| --- | --- | --- |
| COc1cc(C)[nH]c(=O)c1CNC(=O)c1c(C)n([C@H](C)C2CCN(CC(F)F)CC2)c2ccccc12 | half-life | 24.1 |

----------
experiment: Tmax in Beagle dog at 5 mg/kg, po; type: ADME, organism-based, Canis lupus familiaris; conditions: in vivo

| compound | Tmax / h |
| --- | --- |
| COc1cc(C)[nH]c(=O)c1CNC(=O)c1c(C)n([C@H](C)C2CCN(CC(F)(F)F)CC2)c2ccccc12 [CPI-1205] | 1.67 |

----------
test: Cmax in Balb/c mouse at 100 mg/kg, po formulated in 0.5 % methyl cellulose maintained at pH 3; format: ADME, organism-based; set-up: route oral, dose 100 mg/kg; conditions: in vivo, pH 3, 100 mg/kg
recordedMetric: Cmax (µM)

| molSmiles | resultValue |
| --- | --- |
| COc1cc(C)[nH]c(=O)c1CNC(=O)c1c(C)n([C@H](C)C2CCN(CC(F)F)CC2)c2ccccc12 | 52.1 |

----------
test: Cmax in Beagle dog at 5 mg/kg, po; assay type: ADME, organism-based, Canis lupus familiaris; design: route oral, dose 5 mg/kg; conditions: in vivo

| molSmiles | Cmax, nM |
| --- | --- |
| COc1cc(C)[nH]c(=O)c1CNC(=O)c1c(C)n([C@H](C)C2CCN(CC(F)(F)F)CC2)c2ccccc12 | 1240 |

----------
target: Histone-lysine N-methyltransferase EZH2 (Homo sapiens, UniProt Q15910); assay: Inhibition of EZH2 in human HeLa cells assessed as inhibition of trimethylation of H3K27 after 72 hrs by AlphaLISA assay
Sequence (Q15910 whole entry): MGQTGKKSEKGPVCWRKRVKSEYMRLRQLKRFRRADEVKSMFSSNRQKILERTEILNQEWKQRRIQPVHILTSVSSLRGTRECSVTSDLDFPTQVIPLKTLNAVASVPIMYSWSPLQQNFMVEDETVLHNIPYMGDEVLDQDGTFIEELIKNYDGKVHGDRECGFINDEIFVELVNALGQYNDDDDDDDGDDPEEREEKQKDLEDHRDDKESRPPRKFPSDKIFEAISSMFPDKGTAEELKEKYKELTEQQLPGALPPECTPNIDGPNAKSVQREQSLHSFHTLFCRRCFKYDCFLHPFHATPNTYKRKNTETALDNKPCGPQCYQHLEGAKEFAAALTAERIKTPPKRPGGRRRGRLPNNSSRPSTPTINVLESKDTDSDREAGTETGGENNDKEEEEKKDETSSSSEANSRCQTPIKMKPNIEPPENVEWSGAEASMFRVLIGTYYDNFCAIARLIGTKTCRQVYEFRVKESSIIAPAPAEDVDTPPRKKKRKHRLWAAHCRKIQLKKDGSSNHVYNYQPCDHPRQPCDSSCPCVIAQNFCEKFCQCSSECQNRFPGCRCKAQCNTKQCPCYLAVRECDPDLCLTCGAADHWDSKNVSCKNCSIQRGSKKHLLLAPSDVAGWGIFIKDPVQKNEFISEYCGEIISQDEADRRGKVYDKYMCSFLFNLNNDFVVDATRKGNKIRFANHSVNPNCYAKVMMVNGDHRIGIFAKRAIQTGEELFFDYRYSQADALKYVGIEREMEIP
pEC50: −log10 of the molar value.

| molSmiles | testedOn | pEC50 |
| --- | --- | --- |
| COc1cc(C)[nH]c(=O)c1CNC(=O)c1c(C)n([C@H](C)C2CCN(C(=O)N(C)C)CC2)c2ccccc12 | Histone-lysine N-methyltransferase EZH2 (Homo sapiens, UniProt Q15910) | 6.03 |
| COc1cc(C)[nH]c(=O)c1CNC(=O)c1c(C)n([C@H](C)C2CCN(C3COC3)CC2)c2ccccc12 | Histone-lysine N-methyltransferase EZH2 (Homo sapiens, UniProt Q15910) | 6.82 |
| COc1cc(C)[nH]c(=O)c1CNC(=O)c1c(C)n([C@H](C)C2CCN(C(=O)OC(C)C)CC2)c2ccccc12 | Histone-lysine N-methyltransferase EZH2 (Homo sapiens, UniProt Q15910) | 6.96 |
| COc1cc(C)[nH]c(=O)c1CNC(=O)c1c(C)n([C@H](C)C2CCN(CCC(F)(F)F)CC2)c2ccccc12 | Histone-lysine N-methyltransferase EZH2 (Homo sapiens, UniProt Q15910) | 6.54 |
| COc1cc(C)[nH]c(=O)c1CNC(=O)c1c(C)n([C@H](C)C2CCN(CC(F)(F)C(F)F)CC2)c2ccccc12 | Histone-lysine N-methyltransferase EZH2 (Homo sapiens, UniProt Q15910) | 7.42 |
| COc1cc(C)[nH]c(=O)c1CNC(=O)c1c(C)n([C@H](C)C2CCN(CC(F)F)CC2)c2ccccc12 | Histone-lysine N-methyltransferase EZH2 (Homo sapiens, UniProt Q15910) | 7.41 |
| COc1cc(C)[nH]c(=O)c1CNC(=O)c1c(C)n([C@H](C)C2CCN(C(=O)C(C)C)CC2)c2ccccc12 | Histone-lysine N-methyltransferase EZH2 (Homo sapiens, UniProt Q15910) | 6.38 |
| CCOC(=O)CN1CCC([C@@H](C)n2c(C)c(C(=O)NCc3c(OC)cc(C)[nH]c3=O)c3ccccc32)CC1 | Histone-lysine N-methyltransferase EZH2 (Homo sapiens, UniProt Q15910) | 6.59 |
| COc1cc(C)[nH]c(=O)c1CNC(=O)c1c(C)n([C@H](C)C2CCNCC2)c2ccccc12 | Histone-lysine N-methyltransferase EZH2 (Homo sapiens, UniProt Q15910) | 5.96 |
| COc1cc(C)[nH]c(=O)c1CNC(=O)c1c(C)n([C@H](C)C2CCN(C)CC2)c2ccccc12 | Histone-lysine N-methyltransferase EZH2 (Homo sapiens, UniProt Q15910) | 6.33 |
| COc1cc(C)[nH]c(=O)c1CNC(=O)c1c(C)n([C@H](C)C2CCN(CC(C)(F)F)CC2)c2ccccc12 | Histone-lysine N-methyltransferase EZH2 (Homo sapiens, UniProt Q15910) | 7.70 |

----------
experiment: Half life in Sprague-Dawley rat plasma at 1 mg/kg, iv; type: ADME, organism-based

| molSmiles | half-life, min |
| --- | --- |
| COc1cc(C)[nH]c(=O)c1CNC(=O)c1c(C)n([C@H](C)C2CCN(CC(F)(F)F)CC2)c2ccccc12 | 39.2 |

----------
test: Protein binding in rat plasma assessed as bound fraction; format: ADME, cell-free; conditions: read-out: PPB (converted)

| compound | fraction unbound |
| --- | --- |
| COc1cc(C)[nH]c(=O)c1CNC(=O)c1c(C)n([C@H](C)C2CCN(CC(F)F)CC2)c2ccccc12 | 0.169 |
| COc1cc(C)[nH]c(=O)c1CNC(=O)c1c(C)n([C@H](C)C2CCN(CCC(F)(F)F)CC2)c2ccccc12 | 0.026 |
| COc1cc(C)[nH]c(=O)c1CNC(=O)c1c(C)n([C@H](C)C2CCN(CC(F)(F)F)CC2)c2ccccc12 [CPI-1205] | 0.101 |
| COc1cc(C)[nH]c(=O)c1CNC(=O)c1c(C)n([C@H](C)C2CCN(CC(C)(F)F)CC2)c2ccccc12 | 0.076 |
